Biological target: T1, mouse CTGF (antigen of the Biacore assay) (mouse, UniProt P29268 26-348)
T1 construct: also called mouse CTGF protein
T1 sequence (looked up): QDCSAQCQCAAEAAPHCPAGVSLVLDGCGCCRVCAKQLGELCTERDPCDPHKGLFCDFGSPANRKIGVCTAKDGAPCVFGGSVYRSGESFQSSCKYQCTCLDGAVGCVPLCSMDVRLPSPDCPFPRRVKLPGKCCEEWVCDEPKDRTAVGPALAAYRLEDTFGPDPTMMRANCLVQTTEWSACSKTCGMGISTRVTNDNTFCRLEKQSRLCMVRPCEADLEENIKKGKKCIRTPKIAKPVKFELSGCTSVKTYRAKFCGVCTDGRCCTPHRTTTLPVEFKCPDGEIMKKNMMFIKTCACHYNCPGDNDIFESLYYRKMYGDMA
Assay: Biacore, antibody captured on Protein A, mouse CTGF in flow, 1:1 fit
Description: A certain amount of each of the test antibodies was affinity-captured with Protein A biosensor chip (Cat. # 29127556, GE), and then a certain concentration of human or mouse CTGF was allowed to flow through the surface of the chip. The reaction signals were detected in real time with Biacore instrument to generate a binding and dissociation curve. […]
reportedMetric: kon (M⁻¹ s⁻¹)
Kindly answer with a numeric value in M⁻¹ s⁻¹, unit omitted.

Consider the binder chimeric antibody Ch164 (antibody, human IgG1, lambda, V domains shown) VH: QVQLKQSGPGLVQPSQSLSITCTVSGFSLTTFGVHWIRQSPGKGLEWLGVIWRRGGTDYNAAFMSRLSITKDNSRSHVFFKMTSLQTDDSAIYYCARDGGFDYWGQGTTLTVSS VL: QAVVTQESALTTSPGGTVILTCRSSIGAVTTSNYANWVQEKPDHLFTGLIGGTSNRAPGVPVRFSGSLIGDKAALTITGAQAEDDAMYFCALWYSTHYVFGGGTKVTVLG . State its measured kon.
1.23e+08

Give the value of kon reported for the following: Hu95-41wk (antibody, human IgG1, kappa, V domains shown) VH: EVQLVQSGAEVKKPGASVKVSCKASGFTFTNYDIHWVKQAPGQRLEWIGLVYPYNGGTAYNQKFKDKATLTFDTSASTAYMELSSLRSEDTAVYYCARWGLIPGTTSYFDVWGQGTTVTVSS VL: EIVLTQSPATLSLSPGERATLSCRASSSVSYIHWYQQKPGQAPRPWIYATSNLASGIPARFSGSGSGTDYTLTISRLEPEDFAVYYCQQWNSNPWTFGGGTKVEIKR
1.39e+07

Return kon for the following binder: chimeric antibody Ch147 (antibody, human IgG1, kappa, V domains shown) VH: EVQLVESGGGLVQPEGSLKLSCAASGFSFNTYAMNWVRQAPGKGLEWVARIRTKSNNYATYYADSVKDRFTISRDDSESMLYLQMNNLKTEDTAMYYCVETGFAYWDQGTLVTVSA VL: QIVLTQSPAIMSASPGEKVTITCSASSSVSYMHWFQQKPGTSPKLWIYSTSNLASGVPARFSGSGSGTSYSLTISRMEAEDAATYYCQQRSSYPLTFGAGTKLELKR
3.12e+07

Consider the binder chimeric antibody Ch95 (antibody, human IgG1, kappa, V domains shown) VH: EVLLQQSGPVLVKPGPSVKISCKASGFTFTNYDIHWVKQSHGKSLEWIGLVYPYNGGTAYNQKFKDKATLTFDTSSSTAYMELNSLTSEDSAVYYCARWGLIPGTTSYFDVWGTGTTVTVSS VL: QIVLSQSPPILSASPGEKVTMTCRASSSVSYIHWYQQKPRSSPKPWIYATSNLASGVPARFSGSGSGTSYSLTISRVEAEDAATYYCQQWNSNPWTFGGGTRLEIKR and give its recorded kon.
1.38e+07

Tell us which kon value is on record for Hu147-11wk (antibody, human IgG1, kappa, V domains shown) VH: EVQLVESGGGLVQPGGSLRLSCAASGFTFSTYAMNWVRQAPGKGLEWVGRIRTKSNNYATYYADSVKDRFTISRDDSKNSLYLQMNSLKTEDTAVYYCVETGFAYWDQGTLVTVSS VL: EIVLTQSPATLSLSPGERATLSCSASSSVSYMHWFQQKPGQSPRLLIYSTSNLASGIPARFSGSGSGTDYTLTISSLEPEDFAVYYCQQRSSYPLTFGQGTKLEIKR
1.2e+08

Data credit: patent US20220324953A1
